- System Tested: human MOPr (Homo sapiens, UniProt P35372);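 as to MOPr (cAMP) Emax: Emax relative to DAMGO as 100%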
- Sequence (P35372 whole entry): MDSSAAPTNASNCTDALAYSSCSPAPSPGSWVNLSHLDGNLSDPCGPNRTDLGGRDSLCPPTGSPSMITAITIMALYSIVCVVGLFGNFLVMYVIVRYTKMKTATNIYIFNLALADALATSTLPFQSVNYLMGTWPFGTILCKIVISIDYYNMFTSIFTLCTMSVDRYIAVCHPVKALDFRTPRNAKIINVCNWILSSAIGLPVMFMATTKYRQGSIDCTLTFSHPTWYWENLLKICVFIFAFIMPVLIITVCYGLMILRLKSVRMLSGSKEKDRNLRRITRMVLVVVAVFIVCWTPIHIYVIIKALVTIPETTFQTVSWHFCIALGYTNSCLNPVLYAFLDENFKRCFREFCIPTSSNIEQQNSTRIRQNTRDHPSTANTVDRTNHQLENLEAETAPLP
- Procedure Text: cell-based
- Assay type: cell-based
- Set-up: expressed in transfected cells; HEK293-Glo20F cells (cAMP)
- Test Settings: read-out: MOPr (cAMP) Emax
Starred links: 1 amine or outer side, 2 acyl side, 3 side chain; linkers in the order of their positions; H or OH if unused. Non-standard residues stand in square brackets, D forms with d. Residues, ends and D or L forms follow the SMILES beside them. *: point of attachment. Nva(5-(4-Bn-piperidin-1-yl)) = N[C@@H](CCCN1CCC(Cc2ccccc2)CC1)C(=O)O; X1 = O=C1[C@@H](N[*:1])Cc2ccccc2CN1CCC(=O)[*:2]; Dmt = Cc1cc(O)cc(C)c1C[C@H](N)C(=O)O; Nicotinoyl = O=C(c1cccnc1)*; X3 = c1ccc2oc(*)nc2c1; X4 = c1ccc2sc(*)nc2c1; Nlys = NCCCCNCC(=O)O; βAla = NCCC(=O)O
Value Kind: Emax (%)
Just the number please, in %, no unit attached.

Could you tell me which Emax is on file for Cc1cc(O)cc(C)c1C[C@H](N)C(=O)N[C@H](CCCNC(=N)N)C(=O)N[C@H]1Cc2ccccc2CNC1=O ?
103

Queued: Cc1cc(O)cc(C)c1C[C@H](N)C(=O)N[C@H](CCCNC(=N)N)C(=O)N[C@@H](Cc1ccccc1)C(=O)N[C@@H](CCCN)C(=O)N[C@@H](Cc1ccccc1)C(N)=O [KGFF05, H-Dmt-D-Arg-Phe-Orn-Phe-NH2] (HELM PEPTIDE1{[Cc1cc(O)cc(C)c1C[C@H](N)C(=O)[*:2]].[dR].F.[Orn].F.[am]}$$$$V2.0)
94

Then what about the compound Cc1cc(O)cc(C)c1C[C@H](N)C(=O)N[C@H](CCCNC(=N)N)C(=O)N[C@H]1Cc2ccccc2CN(CCC(=O)N[C@@H](CCCCNc2nc3ccccc3s2)C(=O)N[C@@H](Cc2ccccc2)C(N)=O)C1=O [KGFF16, H-Dmt-D-Arg-Aba-β-Ala-Lys(Bth)-Phe-NH2] (H-[Dmt][dR][X1]K(X4)F-NH2) ?
93

Record: CNC(=O)[C@H](Cc1ccccc1)NC(=O)[C@@H](CCCNC(=N)N)NC(=O)[C@@H](N)Cc1c(C)cc(O)cc1C [KGFF13, H-Dmt-D-Arg-Phe-NHMe] (HELM PEPTIDE1{[Cc1cc(O)cc(C)c1C[C@H](N)C(=O)[*:2]].[dR].F.[CN[*:1]]}$$$$V2.0)
97

Similarly, Cc1cc(O)cc(C)c1C[C@H](N)C(=O)N[C@H](CCCCNC(=O)c1cccnc1)C(=O)N[C@H]1Cc2ccccc2CN(CCC(=O)N[C@@H](CCCN2CCC(Cc3ccccc3)CC2)C(=O)N[C@@H](Cc2ccccc2)C(N)=O)C1=O [DP0034, H-Dmt-D-Lys(Nic)-Aba-β-Ala-Bpa-Phe-NH2] (H-[Dmt][dK](Nicotinoyl)[X1][Nva(5-(4-Bn-piperidin-1-yl))]F-NH2) ?
92

Same again, this time with Cc1cc(O)cc(C)c1C[C@H](N)C(=O)N[C@H](CCCNC(=N)N)C(=O)N[C@H]1Cc2ccccc2CN(CC(=O)N[C@@H](CCCNC(=N)N)C(=O)N[C@@H](Cc2ccccc2)C(N)=O)C1=O
101

// next record Cc1cc(O)cc(C)c1C[C@H](N)C(=O)N[C@H](CCCNC(=N)N)C(=O)N[C@H]1Cc2ccccc2CN(CCC(=O)N[C@@H](CCCCNc2nc3ccccc3o2)C(=O)N[C@@H](Cc2ccccc2)C(N)=O)C1=O [KGFF15, H-Dmt-D-Arg-Aba-β-Ala-Lys(Box)-Phe-NH2] (H-[Dmt][dR][X1]K(X3)F-NH2)
92

Further, for Cc1cc(O)cc(C)c1C[C@H](N)C(=O)N[C@H](CCCNC(=N)N)C(=O)N[C@H]1Cc2ccccc2CN(CCC(=O)N[C@@H](CCCN2CCC(Cc3ccccc3)CC2)C(=O)N[C@@H](Cc2ccccc2)C(=O)NCCC(N)=O)C1=O [DP0016, H-Dmt-D-Arg-Aba-β-Ala-Bpa-Phe-β-Ala-NH2] (H-[Dmt][dR][X1][Nva(5-(4-Bn-piperidin-1-yl))]F[βAla]-NH2) ?
95

// repeat for Cc1cc(O)cc(C)c1C[C@H](N)C(=O)N[C@H](CCCNC(=N)N)C(=O)N[C@H]1Cc2ccccc2CN(CCC(=O)N[C@@H](CCCN2CCC(Cc3ccccc3)CC2)C(=O)N[C@@H](CC(C)C)C(N)=O)C1=O [DP0003, H-Dmt-D-Arg-Aba-β-Ala-Bpa-Leu-NH2] (H-[Dmt][dR][X1][Nva(5-(4-Bn-piperidin-1-yl))]L-NH2) and report
70

Further, for Cc1cc(O)cc(C)c1C[C@H](N)C(=O)N(CCCCN)CC(=O)N[C@H]1Cc2ccccc2CN(CCC(=O)N[C@@H](CCCN2CCC(Cc3ccccc3)CC2)C(=O)N[C@@H](Cc2ccccc2)C(N)=O)C1=O [DP0035, H-Dmt-Nlys-Aba-β-Ala-Bpa-Phe-NH2] (H-[Dmt][Nlys][X1][Nva(5-(4-Bn-piperidin-1-yl))]F-NH2) ?
15

Repeat for the following compound: Cc1cc(O)cc(C)c1C[C@H](N)C(=O)N[C@H](CCCNC(=N)N)C(=O)N[C@H]1Cc2ccccc2CN(CCC(=O)N[C@@H](CCCNC(=N)N)C(=O)N[C@@H](Cc2ccccc2)C(N)=O)C1=O [KGFF03, H-Dmt-D-Arg-Aba-β-Ala-Arg-Phe-NH2] (HELM PEPTIDE1{[Cc1cc(O)cc(C)c1C[C@H](N)C(=O)[*:2]].[dR].[O=C1[C@@H](N[*:1])Cc2ccccc2CN1CCC(=O)[*:2]].R.F.[am]}$$$$V2.0)
92

Also, Cc1cc(O)cc(C)c1C[C@H](N)C(=O)N[C@H](CCCNC(=N)N)C(=O)N[C@H]1Cc2ccccc2CN(CCC(=O)N[C@@H](CCCN2CCC(Cc3ccccc3)CC2)C(=O)N[C@@H](Cc2ccccc2)C(N)=O)C1=O please.
85

Also, Cc1cc(O)cc(C)c1C[C@H](N)C(=O)N[C@H](CCCNC(=N)N)C(=O)N[C@H]1Cc2ccccc2CN(CC(=O)N[C@@H](CCCNC(=N)N)C(=O)N[C@@H](Cc2ccccc2)C(=O)O)C1=O please.
89
